Where do these numbers come from? They come from ChEMBL document CHEMBL2218924.

- assayed_system: Macrophage colony-stimulating factor 1 receptor (Homo sapiens)
- condition_parameters: at 1 µM
experimental_readout: residual activity (%)
// return numeric value only (unit: %, not printed)

I'd like to know its residual activity. The molecule in question is COc1cc2c(cc1OC)-c1n[nH]c(Nc3cccc(F)c3)c1C2
1

Now the same for O=c1cc(N2CCNCC2)oc2c(-c3ccccc3)cccc12
61

Now the same for CN(C)S(=O)(=O)c1ccc2c(c1)/C(=C/c1cc3c([nH]1)CCCC3)C(=O)N2
4

----------
- assayed_system: Muscle, skeletal receptor tyrosine-protein kinase (Homo sapiens) (UniProt O15146)
- Sequence (O15146 whole entry): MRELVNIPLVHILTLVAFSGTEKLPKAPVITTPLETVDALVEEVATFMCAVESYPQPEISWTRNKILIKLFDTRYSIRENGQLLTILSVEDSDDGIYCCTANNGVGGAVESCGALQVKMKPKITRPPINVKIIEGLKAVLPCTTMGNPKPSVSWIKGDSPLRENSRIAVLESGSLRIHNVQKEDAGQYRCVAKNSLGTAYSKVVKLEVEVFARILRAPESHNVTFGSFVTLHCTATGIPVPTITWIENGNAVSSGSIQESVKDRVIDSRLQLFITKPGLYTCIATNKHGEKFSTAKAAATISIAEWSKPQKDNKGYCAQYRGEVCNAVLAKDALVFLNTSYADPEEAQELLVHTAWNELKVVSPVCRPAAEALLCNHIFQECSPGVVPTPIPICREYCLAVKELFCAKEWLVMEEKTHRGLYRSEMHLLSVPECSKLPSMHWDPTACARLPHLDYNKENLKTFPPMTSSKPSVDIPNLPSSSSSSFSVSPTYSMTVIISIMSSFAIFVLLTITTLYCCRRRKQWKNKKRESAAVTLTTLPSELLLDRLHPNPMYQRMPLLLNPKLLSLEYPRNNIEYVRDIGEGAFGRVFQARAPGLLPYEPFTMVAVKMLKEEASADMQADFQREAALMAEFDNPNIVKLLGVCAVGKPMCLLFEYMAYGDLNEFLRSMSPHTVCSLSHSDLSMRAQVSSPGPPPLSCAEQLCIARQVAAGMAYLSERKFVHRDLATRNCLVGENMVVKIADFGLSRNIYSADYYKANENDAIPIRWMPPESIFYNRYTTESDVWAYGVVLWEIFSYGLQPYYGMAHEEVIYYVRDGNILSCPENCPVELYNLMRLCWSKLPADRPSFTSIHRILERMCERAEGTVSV
- condition_parameters: at 1 µM
Classes based on residual activity: low = under 70%, medium = from 70% up to 80%, high = 80% and over

Each molecule maps to one class by residual activity. Which class for Cn1sc(=O)n(Cc2ccccc2)c1=O ?
medium

Now the same for Cn1c2ccccc2c2c3c(c4c5ccccc5n(CCC#N)c4c21)CNC3=O
low

Now the same for CC(C)[C@H](CO)Nc1nc(Nc2cc(N)cc(Cl)c2)c2ncn(C(C)C)c2n1
low

Now the same for O=c1cc(N2CCNCC2)oc2c(-c3ccccc3)cccc12
high

Now the same for O=C(CCCc1ccc(-c2ccccc2F)cc1)Nc1ccc(O)cc1
high

Now the same for N#Cc1c(NC(=O)c2cccc3ccccc23)sc2c1CCCC2
high

Now the same for CN([C@@H](Cc1ccc(OS(=O)(=O)c2cccc3cnccc23)cc1)C(=O)N1CCN(c2ccccc2)CC1)S(=O)(=O)c1cccc2cnccc12
high

Now the same for O=C1NC(=O)C(c2cn(CCCn3ccnc3)c3ccccc23)=C1Nc1ccccc1
medium

Now the same for O=C1Cc2c([nH]c3ccc(Br)cc23)-c2ccccc2N1
low
